Test system: T cell hybridoma 5G11
Experiment: T hybridoma 5G11 IL-2 response
Type: cell-based, mouse
Settings: Figure 1; IL-2 production, DRB1*0401 BLCL as APC; duplicate or triplicate; background 29,203 counts; ±30% of WT response = super/partial agonist
Non-standard residues stand in square brackets, D forms with d. Residues, ends and D or L forms follow the SMILES beside them. *: point of attachment. Dip = N[C@H](C(=O)O)C(c1ccccc1)c1ccccc1; Phe(4-I) = N[C@@H](Cc1ccc(I)cc1)C(=O)O; Bn = c1ccc(C*)cc1
PARAMETER_MEASURED: T hybridoma (SI) 5G11
# output: bare number, implied unit SI

{"COMPOUND": "CC(C)C[C@H](NC(=O)[C@@H](NC(=O)[C@H](COCc1ccccc1)NC(=O)[C@H](CO)NC(=O)[C@@H](N)CCCNC(=N)N)[C@@H](C)O)C(=O)N[C@@H](C)C(=O)N[C@@H](CO)C(=O)N[C@@H](CO)C(=O)N[C@@H](CCC(=O)O)C(=O)N[C@H](C(=O)NCC(=O)N[C@H](C(=O)NCC(=O)O)C(C)C)[C@@H](C)O [Compound 35] (H-RSS(Bn)TLASSETGVG-OH)", "STUDY_SYSTEM": "T cell hybridoma 5G11", "PARAMETER_MEASURED": "T hybridoma (SI) 5G11", "ENDPOINT_VALUE": 28}
{"COMPOUND": "CC(C)C[C@H](NC(=O)[C@@H](NC(=O)[C@H](Cc1ccc(I)cc1)NC(=O)[C@H](CO)NC(=O)[C@@H](N)CCCNC(=N)N)[C@@H](C)O)C(=O)N[C@@H](C)C(=O)N[C@@H](CO)C(=O)N[C@@H](CO)C(=O)N[C@@H](CCC(=O)O)C(=O)N[C@H](C(=O)NCC(=O)N[C@H](C(=O)NCC(=O)O)C(C)C)[C@@H](C)O [Compound 33] (H-RS[Phe(4-I)]TLASSETGVG-OH)", "STUDY_SYSTEM": "T cell hybridoma 5G11", "PARAMETER_MEASURED": "T hybridoma (SI) 5G11", "ENDPOINT_VALUE": 26}

// below: T hybridoma (SI) 5G11 requested for another compound
Input CC(C)C[C@H](NC(=O)[C@@H](NC(=O)[C@@H](NC(=O)[C@H](CO)NC(=O)[C@@H](N)CCCNC(=N)N)C(c1ccccc1)c1ccccc1)[C@@H](C)O)C(=O)N[C@@H](C)C(=O)N[C@@H](CO)C(=O)N[C@@H](CO)C(=O)N[C@@H](CCC(=O)O)C(=O)N[C@H](C(=O)NCC(=O)N[C@H](C(=O)NCC(=O)O)C(C)C)[C@@H](C)O [Compound 28] (H-RS[Dip]TLASSETGVG-OH) . Output T hybridoma (SI) 5G11: 29

---

Biological target: HLA-DR4(B1*0401) (Homo sapiens, UniProt P01903+P01911, A100K/A169T/F76Y/I96L/K127E/L162R/M171V/N62H/P40V/Q125Y/R42H/S133A/S149N/S66Y/V115G/V209L/W38E)
Assay: HLA-DR4 competition peptide binding assay
Settings: Figure 1; competition with biotinylated HA307-319 (Y309F) 50 nM, purified HLA-DR4 30 nM, pH 5, 48 h, room temperature; read-out: DRB1*0401 binding IC50
Non-standard residues stand in square brackets, D forms with d. Residues, ends and D or L forms follow the SMILES beside them. *: point of attachment. Phe(4-NO2) = N[C@@H](Cc1ccc([N+](=O)[O-])cc1)C(=O)O; Bn = c1ccc(C*)cc1
pIC50 overview
The value called pIC50 is obtained by taking minus log10 of the concentration in mol/L.

{"COMPOUND": "CC(C)C[C@H](NC(=O)[C@@H](NC(=O)[C@H](Cc1ccc([N+](=O)[O-])cc1)NC(=O)[C@H](CO)NC(=O)[C@@H](N)CCCNC(=N)N)[C@@H](C)O)C(=O)N[C@@H](C)C(=O)N[C@@H](CO)C(=O)N[C@@H](CO)C(=O)N[C@@H](CCC(=O)O)C(=O)N[C@H](C(=O)NCC(=O)N[C@H](C(=O)NCC(=O)O)C(C)C)[C@@H](C)O [Compound 34] (H-RS[Phe(4-NO2)]TLASSETGVG-OH)", "ENDPOINT_VALUE": 7.89}

// below: pIC50 requested for another compound
Input CC(C)C[C@H](NC(=O)[C@@H](NC(=O)[C@H](COCc1ccccc1)NC(=O)[C@H](CO)NC(=O)[C@@H](N)CCCNC(=N)N)[C@@H](C)O)C(=O)N[C@@H](C)C(=O)N[C@@H](CO)C(=O)N[C@@H](CO)C(=O)N[C@@H](CCC(=O)O)C(=O)N[C@H](C(=O)NCC(=O)N[C@H](C(=O)NCC(=O)O)C(C)C)[C@@H](C)O [Compound 35] (H-RSS(Bn)TLASSETGVG-OH) . Output pIC50: 8.15

---

Target: HLA-DR4(B1*0401) (Homo sapiens, UniProt P01903+P01911, A100K/A169T/F76Y/I96L/K127E/L162R/M171V/N62H/P40V/Q125Y/R42H/S133A/S149N/S66Y/V115G/V209L/W38E)
Assay: HLA-DR4 competition peptide binding assay
Conditions: Figure 1; competition with biotinylated HA307-319 (Y309F) 50 nM, purified HLA-DR4 30 nM, pH 5, 48 h, room temperature; read-out: DRB1*0401 binding IC50
Non-standard residues stand in square brackets, D forms with d. Residues, ends and D or L forms follow the SMILES beside them. hPhe = N[C@@H](CCc1ccccc1)C(=O)O
PARAMETER_MEASURED: IC50 (nM)
# output: bare number, implied unit nM

Input CC(C)C[C@H](NC(=O)[C@@H](NC(=O)[C@H](CCc1ccccc1)NC(=O)[C@H](CO)NC(=O)[C@@H](N)CCCNC(=N)N)[C@@H](C)O)C(=O)N[C@@H](C)C(=O)N[C@@H](CO)C(=O)N[C@@H](CO)C(=O)N[C@@H](CCC(=O)O)C(=O)N[C@H](C(=O)NCC(=O)N[C@H](C(=O)NCC(=O)O)C(C)C)[C@@H](C)O [Compound 24] (H-RS[hPhe]TLASSETGVG-OH) . Output IC50: 15

---

pIC50 overview
Molecular target: HLA-DR4(B1*0401) (Homo sapiens, UniProt P01903+P01911, A100K/A169T/F76Y/I96L/K127E/L162R/M171V/N62H/P40V/Q125Y/R42H/S133A/S149N/S66Y/V115G/V209L/W38E)
Experiment: HLA-DR4 competition peptide binding assay
Conditions: Figure 1; competition with biotinylated HA307-319 (Y309F) 50 nM, purified HLA-DR4 30 nM, pH 5, 48 h, room temperature; read-out: DRB1*0401 binding IC50
Non-standard residues stand in square brackets, D forms with d. Residues, ends and D or L forms follow the SMILES beside them. Phe(4-Cl) = N[C@@H](Cc1ccc(Cl)cc1)C(=O)O; Dip = N[C@H](C(=O)O)C(c1ccccc1)c1ccccc1; Tic = O=C(O)[C@@H]1Cc2ccccc2CN1; Cha = N[C@@H](CC1CCCCC1)C(=O)O
The value called pIC50 is obtained by taking minus log10 of the concentration in mol/L.

{"COMPOUND": "CC(C)C[C@H](NC(=O)[C@@H](NC(=O)[C@H](CC1CCCCC1)NC(=O)[C@H](CO)NC(=O)[C@@H](N)CCCNC(=N)N)[C@@H](C)O)C(=O)N[C@@H](C)C(=O)N[C@@H](CO)C(=O)N[C@@H](CO)C(=O)N[C@@H](CCC(=O)O)C(=O)N[C@H](C(=O)NCC(=O)N[C@H](C(=O)NCC(=O)O)C(C)C)[C@@H](C)O [Compound 25] (H-RS[Cha]TLASSETGVG-OH)", "ENDPOINT_VALUE": 8.15}
{"COMPOUND": "CC(C)C[C@H](NC(=O)[C@@H](NC(=O)[C@@H](NC(=O)[C@H](CO)NC(=O)[C@@H](N)CCCNC(=N)N)C(c1ccccc1)c1ccccc1)[C@@H](C)O)C(=O)N[C@@H](C)C(=O)N[C@@H](CO)C(=O)N[C@@H](CO)C(=O)N[C@@H](CCC(=O)O)C(=O)N[C@H](C(=O)NCC(=O)N[C@H](C(=O)NCC(=O)O)C(C)C)[C@@H](C)O [Compound 28] (H-RS[Dip]TLASSETGVG-OH)", "ENDPOINT_VALUE": 8.00}
{"COMPOUND": "CC(C)C[C@H](NC(=O)[C@@H](NC(=O)[C@H](Cc1ccc(Cl)cc1)NC(=O)[C@H](CO)NC(=O)[C@@H](N)CCCNC(=N)N)[C@@H](C)O)C(=O)N[C@@H](C)C(=O)N[C@@H](CO)C(=O)N[C@@H](CO)C(=O)N[C@@H](CCC(=O)O)C(=O)N[C@H](C(=O)NCC(=O)N[C@H](C(=O)NCC(=O)O)C(C)C)[C@@H](C)O [Compound 31] (H-RS[Phe(4-Cl)]TLASSETGVG-OH)", "ENDPOINT_VALUE": 8.05}

Input CC(C)C[C@H](NC(=O)[C@@H](NC(=O)[C@@H]1Cc2ccccc2CN1C(=O)[C@H](CO)NC(=O)[C@@H](N)CCCNC(=N)N)[C@@H](C)O)C(=O)N[C@@H](C)C(=O)N[C@@H](CO)C(=O)N[C@@H](CO)C(=O)N[C@@H](CCC(=O)O)C(=O)N[C@H](C(=O)NCC(=O)N[C@H](C(=O)NCC(=O)O)C(C)C)[C@@H](C)O [Compound 27] (H-RS[Tic]TLASSETGVG-OH) . Output pIC50: 7.68
